# METHOD_NOTES: chemical genetic growth profiling, strain panel (AID 1159580);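 also: tested at 20 µM; growth read once vehicle control cultures reached saturation at 30 °C; 1 = growth at the plate median or of vehicle wells; lower values mean less growth of the strain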
# CONDITION_PARAMETERS: S. cerevisiae deletion strains, growth OD, locus YDR069C, strain doa4
Out of some 5,500 compounds screened, about 2,000 (36%) were called active. Roughly 18% stayed inconclusive and do not appear here. Rule as the data show it: active = normalized growth mostly below about 0.91 (no sharp cut-off); inconclusive = no clear call, values can overlap the other calls; inactive = mostly above about 0.92. The list shows a part of the results.
Hello, when you answer, please use one of the following outcomes: active, inactive

COC(=O)c1c(C)cc(OC)cc1O ... inactive
CN[C@@H]1[C@@H](O)C(OC2[C@@H](N)C[C@@H](N)[C@H](O[C@H]3O[C@H](C(C)O)[C@@H](O)[C@H](O)[C@H]3N)[C@H]2O)OC[C@]1(C)O (some centres undefined) ... inactive
COc1ccccc1/C=C\C(=O)O ... inactive
COC1=CC(=O)C(C(=O)c2ccccc2)=CC1=O ... inactive
CC(=O)O[C@@H]1CC2C(C)(C)C(=O)C=C[C@]2(C)C2CC[C@@]3(C)[C@H](c4ccoc4)OC(=O)[C@H]4O[C@]43[C@@]21C (some centres undefined) ... inactive
OCC(O)C(O)C(O)C(O)C(O)CO (centres undefined) ... inactive

*Q* Please let me know the test result on file for N#Cc1nn(-c2c(Cl)cc(C(F)(F)F)cc2Cl)c(N)c1S(=O)C(F)(F)F (centres undefined) .
*A* inactive

*Q* Please let me know the test result on file for Oc1cc2c(cc1O)C1c3ccc(O)c(O)c3OCC1(O)C2 (centres undefined) .
*A* inactive

*Q* Please let me know the test result on file for "CCOCN(C(=O)CCl)c1c(C)cccc1CC" .
*A* inactive

----------
# METHOD_NOTES: chemical genetic growth profiling, strain panel (AID 1159580);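 also: tested at 20 µM; growth read once vehicle control cultures reached saturation at 30 °C; 1 = growth at the plate median or of vehicle wells; lower values mean less growth of the strain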
# CONDITION_PARAMETERS: S. cerevisiae deletion strains, growth OD, locus YEL061C, strain CIN8 (second series)
Screen size: about 5,500 compounds; about 2,000 (36%) were called active. Inconclusive results (about 18%) are left out. Rule as the data show it: active = normalized growth mostly below about 0.91 (no sharp cut-off); inconclusive = no clear call, values can overlap the other calls; inactive = mostly above about 0.92. Some of the results follow.
Hello, when you answer, please use one of the following outcomes: T = active, F = inactive

Known results for molecules:
O=C1[O][Bi][O]c2ccccc21 ... F
C=C[C@H]1CN2CC[C@H]1C[C@@H]2[C@@H](OC(=O)OCC)c1ccnc2ccc(OC)cc12 ... F
CC(CC(C(N)=O)(c1ccccc1)c1ccccc1)N(C)C (centres undefined) ... F
CC(C)c1c(O)ccc2c1CCC1C(C)(C)CCC[C@]21C (some centres undefined) ... T
CCN[C@@H]1C[C@H](N)[C@@H](O[C@H]2OC(CN)=CC[C@H]2N)[C@H](O)[C@H]1OC1OC[C@](C)(O)[C@H](NC)[C@H]1O (some centres undefined) ... F
CN[C@@H]1[C@@H](O)C(OC2[C@@H](N)C[C@@H](N)[C@H](O[C@H]3O[C@H](C(C)O)[C@@H](O)[C@H](O)[C@H]3N)[C@H]2O)OC[C@]1(C)O (some centres undefined) ... F
COc1cccc2c(C)cc(=O)[nH]c12 ... F
OC1CC2CCCC(C1)N2Cc1ccccc1 (centres undefined) ... F

Let's switch to this molecule now.
*Q* Please let me know the test result on file for CCN(Cc1ccncc1)C(=O)C(CO)c1ccccc1 (centres undefined) .
*A* F

----------
# reported normalized growth; entries follow
# METHOD_NOTES: chemical genetic growth profiling, strain panel (AID 1159580);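 also: tested at 20 µM; growth read once vehicle control cultures reached saturation at 30 °C; 1 = growth at the plate median or of vehicle wells; lower values mean less growth of the strain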
# CONDITION_PARAMETERS: S. cerevisiae deletion strains, growth OD, locus YKL193C, strain SDS22, stronger effect = lower value
About 2,000 (36%) of roughly 5,500 compounds were called active. About 18% were inconclusive and are not listed. The list shows a part of the results.
Give a plain numeric answer without units written out.

Below, 3 molecules whose answers are already recorded.
Oc1c(Br)cc(Br)cc1C=Nc1ccc(Sc2ccccc2)nc1Sc1ccccc1 ... 0.93
O=C1Nc2ccccc2/C1=C\c1cccc([N+](=O)[O-])c1 ... 0.963
FC(F)(F)c1cccc(NC(=S)NN=C2CCCCCC2)c1 ... 0.986

*Q* Requested read-out: normalized growth. Entry: "FC(F)(F)c1ccc(N2CCc3ccccc3C2)c(NC(=S)Nc2cc(Cl)cc(Cl)c2)c1"
*A* 0.974

*Q* Requested read-out: normalized growth. Entry: "Cc1ccc(NNC(=O)c2cccs2)cc1Cl"
*A* 0.968

*Q* Requested read-out: normalized growth. Entry: "O=C(NNc1ccc(F)cc1F)c1sccc1Cl"
*A* 0.976

*Q* Requested read-out: normalized growth. Entry: "Oc1c(Cl)cc(Cl)cc1C=Nc1ccc(Sc2ccccc2)nc1Sc1ccccc1"
*A* 0.945

*Q* Requested read-out: normalized growth. Entry: "O=C1Nc2ccccc2/C1=C\c1ccc(Cl)cc1"
*A* 0.942
